system: NCI-H526 cell line; experiment: Cell viability assay for H526 cell (EZ-Cytox); format: cell-based; settings: Homo sapiens, NCI-H526, 120 h; H526 cells, 5 days, 3000 nM to 0.46 nM
pIC50: −log10 of the molar value.
Field: pIC50. Provide a value for each of the compounds that follow.

Compound	pIC50
COc1cc(C(=O)NC2CCN(C(=O)COc3cccc4c3C(=O)N(C3CCC(=O)NC3=O)C4=O)CC2)c(F)cc1Nc1ncc2c(n1)N(C1CCCC1)CC(F)(F)C(=O)N2C (stereo not drawn) [Compound 37]	> 6.40

Value sought for every listed compound: pIC50.
1. CN1C(=O)C(F)(F)CN(C2CCCC2)c2nc(Nc3ccc(C(=O)NC4CCN(C(=O)CCN5CCN(c6cccc7c6C(=O)N(C6CCC(=O)NC6=O)C7=O)CC5)CC4)cc3F)ncc21 (stereo not drawn) [Compound 118]
2. COc1cc(C(=O)NC2CCN(CCOc3cccc4c3C(=O)N(C3CCC(=O)NC3=O)C4=O)CC2)ccc1Nc1ncc2c(n1)N(C1CCCC1)CC(F)(F)C(=O)N2C (stereo not drawn) [Compound 5]

Outgoing:
> 7.30
> 6.40
